Source listed as patent US20190241669A1.

# target of assay: T1, cynomolgus monkey BCMA (cynomolgus monkey, UniProt A0A2K5UD97 1-53)
# T1 construct: Soluble analyte in SPR; construct not described; also called cyBCMA; Cyno BCMA
# T1 sequence (A0A2K5UD97 entry or part of it): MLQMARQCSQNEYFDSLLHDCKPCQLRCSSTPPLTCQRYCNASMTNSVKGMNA
# protocol notes: SPR, IgG on chip, cyBCMA analyte
koff values for the binders below.

Field: example entries. Status: answers known.
binder: A02_Rd4_6nM_C08 (antibody, V domains shown, IgG) VH: EVQLLESGGGLVQPGGSLRLSCAASGFTFSSYAMNWVRQAPGKGLEWVSAILDSGGSTYYADSVKGRFTISRDNSKNTLYLQMNSLRAEDTAVYYCARYWPMSPWGQGTLVTVSS VL: EIVLTQSPGTLSLSPGERATLSCRASQSVSFLYLAWYQQKPGQAPRLLMYDASIRATGIPDRFSGSGSGTDFTLTISRLEPEDFAVYYCQQYGSWPLTFGQGTKVEIK
koff: 0.0113 s⁻¹
//
binder: COMBO_Rd4_6nM_C09 (antibody, V domains shown, IgG) VH: EVQLLESGGGLVQPGGSLRLSCAASGFTFSSYPMSWVRQAPGKGLEWVSAIFASGGSTYYADSVKGRFTISRDNSKNTLYLQMNSLRAEDTAVYYCARYWPMDSWGQGTLVTVSS VL: EIVLTQSPGTLSLSPGERATLSCRASQSVSAQYLAWYQQKPGQAPRLLMYDASIRATGIPDRFSGSGSGTDFTLTISRLEPEDFAVYYCQQYQAWPLTFGQGTKVEIK
koff: 0.000318 s⁻¹
//
binder: A02_Rd4_6nM_C03 (antibody, V domains shown, IgG) VH: EVQLLESGGGLVQPGGSLRLSCAASGFTFSSYAMNWVRQAPGKGLEWVSAISDSGGSTYYADSVKGRFTISRDNSKNTLYLQMNSLRAEDTAVYYCARYWPMDIWGQGTLVTVSS VL: EIVLTQSPGTLSLSPGERATLSCRASQSVSNLYLAWYQQKPGQAPRLLMYDASIRATGIPDRFSGSGSGTDFTLTISRLEPEDFAVYYCQQYQGWPLTFGQGTKVEIK
koff: 0.000185 s⁻¹
//
binder: C01_Rd4_0.6nM_C27 (antibody, V domains shown, IgG) VH: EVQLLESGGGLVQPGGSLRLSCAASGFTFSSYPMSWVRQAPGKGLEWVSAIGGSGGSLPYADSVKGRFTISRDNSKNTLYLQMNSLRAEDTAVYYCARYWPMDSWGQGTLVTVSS VL: EIVLTQSPGTLSLSPGERATLSCRASQSVSSTYLAWYQQKPGQAPRLLIYDASSRAPGIPDRFSGSGSGTDFTLTISRLEPEDFAVYYCQQYSRWPLTFGQGTKVEIK
koff: 0.00285 s⁻¹

# ---- query binder ----
Query :: State the recorded koff for this entry: A02_Rd4_6nM_C25 (antibody, V domains shown, IgG) VH: EVQLLESGGGLVQPGGSLRLSCAASGFTFSSYAMNWVRQAPGKGLEWVSAISDSGGSRWYADSVKGRFTISRDNSKNTLYLQMNSLRAEDTAVYYCARYWPMTPWGQGTLVTVSS VL: EIVLTQSPGTLSLSPGERATLSCRASQSVSSSYLAWYQQKPGQAPRLLMYDASIRATGIPDRFSGSGSGTDFTLTISRLEPEDFAVYYCQQYLDWPLTFGQGTKVEIK
Result :: 0.00033 s⁻¹
